# System: MCF-10A
# experimental protocol: normalised response (% of control), CellTox Green; higher = less cell death (100 = DMSO, 0 = benzethonium chloride kill control)
# condition notes: incubation time: 72 h
Lab note: compare normalised response against 80%. Equal or greater, write y. Smaller, write n.

Check out these entries, answers already filled in.
Nc1nc2[nH]cnc2c(=S)[nH]1 [Thioguanine] (100 nM) :: n
O=C1CN2Cc3c(ccc(Cl)c3Cl)N=C2N1 [Anagrelide] (1000 nM) :: y
CC(C)(C)c1cnc(CSc2cnc(NC(=O)C3CCNCC3)s2)o1 [SNS-032] (10000 nM) :: n
COc1cc2c(cc1O)CC[C@@H]1[C@@H]2CC[C@]2(C)[C@@H](O)CC[C@@H]12 [2-methoxyestradiol] (100 nM) :: n
CC(=O)O[C@@]12CO[C@@H]1C[C@H](O)[C@@]1(C)C(=O)[C@H](O)C3=C(C)[C@@H](OC(=O)[C@H](O)[C@@H](NC(=O)OC(C)(C)C)c4ccccc4)C[C@@](O)([C@@H](OC(=O)c4ccccc4)[C@H]21)C3(C)C [Docetaxel] (1000 nM) :: n
C[C@]1(O)C[C@@H](c2nc(-c3ccc4ccc(-c5ccccc5)nc4c3)c3c(N)nccn32)C1 [Linsitinib] (10000 nM) :: y
CC1=C2C[C@H]3[C@@H](CC=C4C[C@@H](O)CC[C@@]43C)[C@@H]2CC[C@]12O[C@@H]1C[C@H](C)CN[C@H]1[C@H]2C [Cyclopamine] (100 nM) :: y
O=C1CN2Cc3c(ccc(Cl)c3Cl)N=C2N1 [Anagrelide] (100 nM) :: y

Tell me whether normalised response is at least 80% here: CC[C@@H]1C(=O)OC[C@@H]1Cc1cncn1C [Pilocarpine] (4000 nM)
y

Tell me whether normalised response is at least 80% here: Cn1cc(C2=Nc3cc(NC(=O)C(N)C4CCCCC4)cc4c3C2=CNNC4=O)cn1 (stereo not given) (1000 nM)
n

Tell me whether normalised response is at least 80% here: Cc1sc2c(c1C)C(c1ccc(Cl)cc1)=N[C@@H](CC(=O)OC(C)(C)C)c1nnc(C)n1-2 [(+)JQ1] (10000 nM)
y

Tell me whether normalised response is at least 80% here: C[C@]12CC[C@@H]3c4ccc(OC(=O)N(CCCl)CCCl)cc4CC[C@H]3[C@@H]1CC[C@@H]2O [Estramustine] (100 nM)
y

###

# Test system: CAL-120
# experimental protocol: normalised viability (% of control), CellTiter-Blue; higher = more viable cells (about 100 = DMSO control)
# condition notes: 10000 nM; incubation time: 72 h
parameter: normalised viability (%)
Write it as a number; the unit % goes unstated.

Oc1ncnc2[nH]ncc12 :: 108

Bench note, CAL-120: entry O=C1CN2Cc3c(ccc(Cl)c3Cl)N=C2N1 [Anagrelide] , its normalised viability = 86.2

Bench note, CAL-120: entry O=NN(CCCl)C(=O)NCCCl , its normalised viability = 82.5

Bench note, CAL-120: entry COc1cc2c(cc1O)CC[C@@H]1[C@@H]2CC[C@]2(C)[C@@H](O)CC[C@@H]12 , its normalised viability = 24.2

Bench note, CAL-120: entry CC(C)(C)c1cnc(CSc2cnc(NC(=O)C3CCNCC3)s2)o1 , its normalised viability = 11.8

###

Entries and their normalised response values follow.
# System: Hs578T
# experimental protocol: normalised response (% of control), CellTiter-Glo; higher = more viable cells (100 = DMSO, 0 = benzethonium chloride kill control)
# condition notes: incubation time: 72 h
Write it as a number; the unit % goes unstated.

Some solved entries appear below for comparison.
CC(=O)O[C@@]12CO[C@@H]1C[C@H](O)[C@@]1(C)C(=O)[C@H](O)C3=C(C)[C@@H](OC(=O)[C@H](O)[C@@H](NC(=O)OC(C)(C)C)c4ccccc4)C[C@@](O)([C@@H](OC(=O)c4ccccc4)[C@H]21)C3(C)C [Docetaxel] (100 nM) :: 13
CC(=O)c1c(C)c2cnc(Nc3ccc(N4CCNCC4)cn3)nc2n(C2CCCC2)c1=O [Palbociclib] (1000 nM) :: 93.3
CC[C@@H]1C(=O)OC[C@@H]1Cc1cncn1C [Pilocarpine] (40 nM) :: 98.1
CC(=O)O[C@@]12CO[C@@H]1C[C@H](O)[C@@]1(C)C(=O)[C@H](O)C3=C(C)[C@@H](OC(=O)[C@H](O)[C@@H](NC(=O)OC(C)(C)C)c4ccccc4)C[C@@](O)([C@@H](OC(=O)c4ccccc4)[C@H]21)C3(C)C [Docetaxel] (0.1 nM) :: 93.2
CC1=C2C[C@H]3[C@@H](CC=C4C[C@@H](O)CC[C@@]43C)[C@@H]2CC[C@]12O[C@@H]1C[C@H](C)CN[C@H]1[C@H]2C [Cyclopamine] (10 nM) :: 105

Bench note, Hs578T: entry Nc1nc2[nH]cnc2c(=S)[nH]1 [Thioguanine] (10 nM) , its normalised response = 102

Bench note, Hs578T: entry CC(=O)c1c(C)c2cnc(Nc3ccc(N4CCNCC4)cn3)nc2n(C2CCCC2)c1=O [Palbociclib] (1 nM) , its normalised response = 95.7

Bench note, Hs578T: entry CC[C@@H]1C(=O)OC[C@@H]1Cc1cncn1C [Pilocarpine] (4 nM) , its normalised response = 103

Bench note, Hs578T: entry COc1cc(F)c(F)c(Nc2ccc(I)cc2F)c1NS(=O)(=O)C1(C[C@H](O)CO)CC1 [Refametinib] (1 nM) , its normalised response = 92.9

Bench note, Hs578T: entry CC1(C)CCC(CN2CCN(c3ccc(C(=O)NS(=O)(=O)c4ccc(NCC5CCOCC5)c([N+](=O)[O-])c4)c(Oc4cnc5[nH]ccc5c4)c3)CC2)=C(c2ccc(Cl)cc2)C1 [ABT-199] (1 nM) , its normalised response = 104

Bench note, Hs578T: entry CC(C)(C)c1cnc(CSc2cnc(NC(=O)C3CCNCC3)s2)o1 [SNS-032] (10 nM) , its normalised response = 102

Bench note, Hs578T: entry O=NN(CCCl)C(=O)NCCCl [Carmustine] (1 nM) , its normalised response = 100

Bench note, Hs578T: entry C[C@]1(O)C[C@@H](c2nc(-c3ccc4ccc(-c5ccccc5)nc4c3)c3c(N)nccn32)C1 [Linsitinib] (1 nM) , its normalised response = 93.2

###

# Tested on: MFM-223
# experimental protocol: normalised response (% of control), CellTiter-Glo; higher = more viable cells (100 = DMSO, 0 = benzethonium chloride kill control)
# condition notes: incubation time: 72 h
Entries and their normalised response values follow.
Write it as a number; the unit % goes unstated.

COc1cc(F)c(F)c(Nc2ccc(I)cc2F)c1NS(=O)(=O)C1(C[C@H](O)CO)CC1 [Refametinib] (100 nM) :: 88.9
COc1cc2c(cc1O)CC[C@@H]1[C@@H]2CC[C@]2(C)[C@@H](O)CC[C@@H]12 [2-methoxyestradiol] (100 nM) :: 94.2

Looking up Cn1cc(C2=Nc3cc(NC(=O)C(N)C4CCCCC4)cc4c3C2=CNNC4=O)cn1 (stereo not drawn) (100 nM) , I found its normalised response recorded as 77.8

###

# Test system: MFM-223
# experimental protocol: normalised viability (% of control), CellTiter-Blue; higher = more viable cells (about 100 = DMSO control)
# condition notes: 1000 nM; incubation time: 72 h
parameter: normalised viability (%)
Write it as a number; the unit % goes unstated.

Some solved entries appear below for comparison.
COc1cc2c(cc1O)CC[C@@H]1[C@@H]2CC[C@]2(C)[C@@H](O)CC[C@@H]12 :: 74.9
CC1(C)CNc2cc(NC(=O)c3cccnc3NCc3ccncc3)ccc21 :: 76.4
O=P(O)(O)C(O)(Cn1ccnc1)P(=O)(O)O :: 86.5
Oc1ncnc2[nH]ncc12 :: 110

Looking up COc1cc(F)c(F)c(Nc2ccc(I)cc2F)c1NS(=O)(=O)C1(C[C@H](O)CO)CC1 , I found its normalised viability recorded as 75.7

###

# Test system: HCC1143
# experimental protocol: normalised response (% of control), CellTiter-Glo; higher = more viable cells (100 = DMSO, 0 = benzethonium chloride kill control)
# condition notes: incubation time: 72 h
parameter: normalised response
Quick note: number first, unit second.

Some solved entries appear below for comparison.
Oc1ncnc2[nH]ncc12 [Allopurinol] (100 nM) :: 106%
O=C1CN2Cc3c(ccc(Cl)c3Cl)N=C2N1 [Anagrelide] (100 nM) :: 101%
CC(C)(C)c1cnc(CSc2cnc(NC(=O)C3CCNCC3)s2)o1 [SNS-032] (100 nM) :: 36.6%
Nc1ncn([C@@H]2O[C@H](CO)[C@@H](O)[C@H]2O)c(=O)n1 [Azacitidine] (100 nM) :: 98.6%
Cc1sc2c(c1C)C(c1ccc(Cl)cc1)=N[C@@H](CC(=O)OC(C)(C)C)c1nnc(C)n1-2 [(+)JQ1] (100 nM) :: 99.5%

Then there is this compound:
Looking up C[C@]12CC[C@@H]3c4ccc(OC(=O)N(CCCl)CCCl)cc4CC[C@H]3[C@@H]1CC[C@@H]2O [Estramustine] (100 nM) , I found its normalised response recorded as 100%
